Biological target: acetylcholine receptor
Assay: SPR, peptide at 10 uM on acetylcholine receptor
Quick list: Binding affinity (RU) per entry.
Give your result in RU as a bare value.

// known answers, use as guide
{"columns": ["Binder", "Binding affinity (RU)"],
 "data": [
  ["RIPHR [5mer-968]", 11],
  ["RCNMK [5mer-661]", 30],
  ["RCKWR [5mer-988]", 17]
]}

Field: next binder
## Task Which Binding affinity (RU) is reported for this binder? KEKFR [5mer-993]
## Result 27
